Source of measurements: patent US20240207429A1

- EXPERIMENTAL TARGET: T1, Cynomolgus/Rhesus macaque FOLR1 Protein, His Tag (ACRO, F01-C52H8) (cynomolgus, UniProt A0A2K5U044 25-233)
- T1 construct: also called cynomolgus FOLR1 protein; not shown: His tag
- T1 sequence (A0A2K5U044 entry or part of it): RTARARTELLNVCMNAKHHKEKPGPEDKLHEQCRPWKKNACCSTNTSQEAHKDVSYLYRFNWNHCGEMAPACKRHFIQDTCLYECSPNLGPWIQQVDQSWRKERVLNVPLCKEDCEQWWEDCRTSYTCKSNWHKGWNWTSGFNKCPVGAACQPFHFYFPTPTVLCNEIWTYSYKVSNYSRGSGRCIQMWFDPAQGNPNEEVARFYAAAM
- PROCEDURE TEXT: ELISA, supernatant diluted 25x
Here, each record is paired with measured OD450 data.
Lab note: record just the number, no unit beside it.

[[record]]
binder = "F26 (antibody, V domains shown, also called clone F26; anti-FOLR1 antibody F26) VH: EVQLLESGGGVVQRGRSLRLSCAASGFTFSSYGMHWVRQAPGKGLEWVAVISYDGSNKYYADSVKGRFTISRDNSKNTLYLPMNSLRAEDTAVYYCARPRAYYGAYGSSFDYWGQGTQVTVSS VL: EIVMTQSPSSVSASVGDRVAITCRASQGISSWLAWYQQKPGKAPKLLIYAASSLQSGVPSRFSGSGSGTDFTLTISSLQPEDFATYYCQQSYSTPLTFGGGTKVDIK"
value_observed = 1.02


Task item: Consider the binder F131 (antibody, V domains shown, also called clone F131; F131 mAb) VH: EVQLLESGGGVVQPGRSLRLSCAASGFTFSSYGMHWVRQAPGKGLEWVAVISYDGSNKYYADSVKGRFTISRANSKNTLYLQMNSLRAEDTAVYYCARPRAYYGAYGSSFDYWGQGTQVTVSS VL: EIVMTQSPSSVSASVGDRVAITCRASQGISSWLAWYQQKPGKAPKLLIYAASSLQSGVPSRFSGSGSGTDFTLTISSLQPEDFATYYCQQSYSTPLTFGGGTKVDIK and give its measured OD450.
Reply: 1.09

Task item: Fill in the blank: the reported OD450 of F1 (antibody, V domains shown, also called clone F1; anti-FOLR1 antibody F1) VH: EVQLLESGGGVVQPGRSLRLSCAASGFTFSSYGMHWVRQAPGKGLEWVAVISYDGSNKYYADSVKGRFTISRDNSKNTLYLQMNSLRAEDTAVYYCARPRAYYGAYGSSFDYWGQGTQVTVSS VL: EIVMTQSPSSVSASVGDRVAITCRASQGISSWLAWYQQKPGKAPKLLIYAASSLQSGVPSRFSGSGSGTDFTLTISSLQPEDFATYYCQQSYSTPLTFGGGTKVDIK is ____.
Reply: 0.994

Task item: Record request: OD450 value, item F138 (antibody, V domains shown, also called clone F138; anti-FOLR1 antibody F138) VH: EVQLLESGGGVVQPGRSLRLSCAASGFTFSSYGMHWVRQAPGKGLEWVAVISYDGSNKYYADSVKGRFTISTHNSKNTLYLQMNSLRAEDTAVYYCARPRAYYGAYGSSFDYWGQGTQVTVSS VL: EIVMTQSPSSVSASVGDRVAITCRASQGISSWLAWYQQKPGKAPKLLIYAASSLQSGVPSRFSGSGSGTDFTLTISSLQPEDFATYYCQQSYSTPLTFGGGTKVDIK
Reply: 1.17

Task item: Bench note: what OD450 did F40 (antibody, V domains shown, also called clone F40; anti-FOLR1 antibody F40) VH: EVQLLESGGGVVQPGRSLRLSCAASGFTFSSYAMHWVRQAPGKGLEWVAVISYDGSNKYYADSVKGRFIISRDNSKNTVYLQMNSLRAEDTAVYYCARPTYVFTYTGSSFDYWGQGTQVTVSS VL: DIQVTQSPSSLSASLGDTVSITCRASRGLTDSVAWYQQKPGQAPKLLIYAASTLQSGVPSRFGGSGSGSYFTLTITSLQPEDVATYYCQNYKSAPWTFGQGTKVEIK show?
Reply: 0.924

Task item: Look up OD450 for this binder: F112 (antibody, V domains shown, also called clone F112; anti-FOLR1 antibody F112) VH: EVQLLESGGGVVQPGRSLRLSCAASGFTFSSYGMHWVRQAPGKGLEWVAVISYDGSNKYYADSVKGRFTISRHNSKNTLYLQMNSLRAEDTAVYYCARPRAYYGAYGSSFDYWGQGTQVTVSS VL: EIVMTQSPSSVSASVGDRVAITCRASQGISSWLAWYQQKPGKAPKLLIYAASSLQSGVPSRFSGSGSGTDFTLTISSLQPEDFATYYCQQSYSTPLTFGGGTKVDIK
Reply: 0.933
